Each recorded value in this set is attributed to patent US20260207704A1.

molecular target: beta-catenin (human); assay: fluorescence polarization
Sequence (B6V8E6 146-665 limits assumed): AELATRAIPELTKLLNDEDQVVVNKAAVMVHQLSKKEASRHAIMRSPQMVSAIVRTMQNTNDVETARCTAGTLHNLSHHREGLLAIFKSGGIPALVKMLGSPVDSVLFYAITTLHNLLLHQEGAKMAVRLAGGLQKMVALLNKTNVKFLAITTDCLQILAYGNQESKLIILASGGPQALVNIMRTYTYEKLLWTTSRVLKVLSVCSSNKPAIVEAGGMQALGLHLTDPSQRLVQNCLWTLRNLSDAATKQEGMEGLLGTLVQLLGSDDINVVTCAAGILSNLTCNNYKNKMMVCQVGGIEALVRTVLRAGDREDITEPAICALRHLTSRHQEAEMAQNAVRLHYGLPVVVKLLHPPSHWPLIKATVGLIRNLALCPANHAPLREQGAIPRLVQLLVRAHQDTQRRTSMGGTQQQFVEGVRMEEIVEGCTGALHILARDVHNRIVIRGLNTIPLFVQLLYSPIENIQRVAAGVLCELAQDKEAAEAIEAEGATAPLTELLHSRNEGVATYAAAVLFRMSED
*1 amine or outer side, *2 acyl side, *3 side chain or, on linkers, in order; H or OH if unused. Bridges are numbered along the chain shown (N, C = ends). Primed or numbered codes have the meaning given here. [ ]: non-standard residue; d: D form. The star is where a group is joined. PyrS2(3) = (S)-3-amino-1-((pent-4-en-1-yloxy)carbonyl)pyrrolidine-3-carboxylic acid, olefin residue, C=CCCCOC(=O)N1CC[C@@](N[*:1])(C(=O)[*:2])C1; PyrS2(5) = (S)-3-amino-1-((pent-4-en-1-yloxy)carbonyl)pyrrolidine-3-carboxylic acid, C=CCCCOC(=O)N1CC[C@@](N[*:1])(C(=O)[*:2])C1; B5(5) = 2-amino-2-(pent-4-en-1-yl)hept-6-enoic acid (two olefin arms), C=CCCCC(CCCC=C)(N[*:1])C(=O)[*:2]; B5(3) = 2-amino-2-(pent-4-en-1-yl)hept-6-enoic acid, two olefin arms, C=CCCCC(CCCC=C)(N[*:1])C(=O)[*:2]; Me2Mal = 2-carboxy-2-methylpropanoyl group on the Lys side chain, CC(C)(C(=O)O)C(=O)*; Phe(3-COOH) = N[C@@H](Cc1cccc(C(=O)O)c1)C(=O)O; Phe(2-Cl) = N[C@@H](Cc1ccccc1Cl)C(=O)O; Bta = N[C@@H](Cc1csc2ccccc12)C(=O)O; αAllylPro = C=CC[C@@]1(C(=O)O)CCCN1; tBuAla = CC(C)(C)C[C@H](N)C(=O)O; 3Thi = N[C@@H](Cc1ccsc1)C(=O)O; GlnR = not defined here
Can you tell me IC50 for the items I'm about to list?

{"BINDER": "Ac-[αAllylPro]D[tBuAla][B5(5)]D[Phe(3-COOH)]AAFK[PyrS2(5)][3Thi][Bta][GlnR]A-NH2 (bridge 10-14; reading uncertain; also: PL3/B5/PyrS2 staple links not placed, printed as Ac-PL3-Asp-Npg-B5-Asp-3COOHF-Ala-Ala-Phe-Lys*3-PyrS2-3Thi-BztA-GlnR*3-Ala-NH2) [I-42]", "IC50": "< 50 nM"}

Ask: Can you look up the measured IC50 of Ac-[αAllylPro]D[tBuAla][B5(3)]D[Phe(3-COOH)]K(Me2Mal)AFL[PyrS2(3)][Phe(2-Cl)][Bta]K-NH2 (not fully specified (residue 6, bridges); printed as Ac-PL3-Asp-Npg-B5-Asp-3COOHF-[Me2Mal]Lys-Ala-Phe-Leu-PyrS2-2ClF-BztA-Lys-NH2) [I-52] for me?
Result: < 50 nM
